- Assay Overview: yeast display, Sf9 membrane polyspecificity reagent, FACS + sequencing; frameworks hold sequencing errors
Property Label: polyreactivity (PSR sort gate)

Answered examples (5):
QVQLVESGGGLVQAGGSLRLSCAASGSTLRRNAMGWYRQAPGTERELVAAITGSRGSTFYADSVKGRFTISRDNAKNTVYLQMNSLKPEDTAVYYCAVYKWSTRVSQYRYDYWGQGTQVTVSS : high polyreactivity
QVQLVESGGGLVQAGGSLRLSCAACGSIFPGYAMGWYREAPGKERELVAAITWNGGRTYSADSVKGRFTISRDNAKNTVYLQMNSLKPEDTAVYYCAVAGYAGLSVKYGYWGQGTQVTVSS : high polyreactivity
QVQLVESGGGLVQAGGSLRLSCAASGFTFQYNAMGWYRQAPGKERELVAGISRSGANTYYADSVKGRFTISRDTAKNTVYLQMNSLKPEDTAVYYCNNLTSRVGPDEYDYWGQGTQVTVSS : high polyreactivity
QVQLVESGGGLVQAGGSLRLSCAPSGFTLSTYAMGWYRQAPGKERELVAAISRSTDRTYYADSVKGRFTISRDNAKNTVYLQMNSLKPEDTAVYYCAAKSVYYLYRFYYWGQGSQVTVSS : high polyreactivity
QVQLVESGGALVQAGGSLRLSCAASGSTFFINAMGWYRQAPGKERELVAAITSTDSTTYADSVKGRFTISRDNAKNTVYLQMNSLKPEDTAVYYCAKESIGQDPVSGAWARHEYDYWGQGTQVTVSS : low polyreactivity

response.value for "QGQLVESGGGLLQAGGSLSLSCAATGFTFTENAMGWYRQEPGKEREFVAYISSSGDSTYYSDSVKGRFTISRDNAKNTVYLQMNSLKPEDTAVYYCYRDLVYDYYYVPQPSRFDYWGQGTQVTLSS" (field: polyreactivity (PSR sort gate)) = high polyreactivity

Entry "QVQLVESGGGLVQAGGSLSLSCAASGSTFGRYVMGWDRQAPGTERELVAAISYSGGRSYYADSVKGRFTMSRDNAKNTVYLQMNSLKPEDTAVYYCNAYGIDTGDYWGQGTQVTVSS" — recorded polyreactivity (PSR sort gate) = high polyreactivity

###

- Assay Overview: yeast display, Sf9 membrane polyspecificity reagent, FACS + sequencing; frameworks hold sequencing errors
Property Label: polyreactivity (PSR sort gate)

QVQLVQSGGGLVQEGGSLRLSCAASGSTLSIYAMGWYRQAPGKERELVASITTSGSSTYYADSVKGRFTISRDNAKNTVYLQMNSLKPEDTAVYYCAKRKSYRSQPWGYDYWGQGTQVTVSS : high polyreactivity
QVQLVESGGGLVQAGGSLRLSCAASGSILGVYAMGWYRQAPGKERELVAAISSGGRTYYADSVKGRFTISRDNAKNTVYLQMNSLKPEDTAVYYCNAVSGSFLKYSRYYWGQGTQVTVSS : high polyreactivity
QVHLVESGGGLVQAGGSLRLSCAASGRIFRTYAMGWYRQAPGTERELVASITTSSDSPYYADSVKGRFTISRDNAKNTVYLQMNSLKPEDTAVYYCAADGDHPWWSQYDYWGQGTQVTVSS : low polyreactivity
QVQLVESGGGLVQAGGSLRLSCAASGRTFSGNAMGWYRQAPGKERELVASISTSTDGTYYADSVKGRFTISRDNAKNTVYLQMNSLKAEDTAVYYCTTTTYHWYYYRWEIFDYRGQGTQVTVSS : low polyreactivity

Documented polyreactivity (PSR sort gate) of "QVQLVESGGGLVQAGGSLRLSCAASGSIFDVYAMGWYRQAPGKERELVAAITGGGSTYYADSVKGRFTISRDNAKNSVYLQMNSLKPEDTAVYYCNADRRRRSGGFAGWHFQRNEYWGHGTQVTVSS" : low polyreactivity

###

- Assay Overview: yeast display, Sf9 membrane polyspecificity reagent, FACS + sequencing; frameworks hold sequencing errors
Property Label: polyreactivity (PSR sort gate)

QVQLVESGGGLFQAGGSLRLSCAASGFTFDYYAMGWYRPAPGKERELVAAISRAGSTNYADSVKGRFTISRDNAKNTVYLQMNSLKPEDTAVYYCNKGYHSWSRLSQFGWSYDYWGQGTQVTVSS : high polyreactivity
QVQLVESGGGLVQAGGSLRLSCAASVSIFKVNAMGWYRQAPGKERELVAAISTSGSRTYYADSVKGRFTISRDNAKNTVYLQMNSLKPEDTAVYYCADDSYAGIVRYGYWGKGTQVTVSS : high polyreactivity

###

- Assay Overview: yeast display, Sf9 membrane polyspecificity reagent, FACS + sequencing; frameworks hold sequencing errors
Property Label: polyreactivity (PSR sort gate)

These solved cases illustrate the format of a correct answer.
QVQLVESGGGLVQAGGSLRLSCAASGSTFRRYAMGWYRQAPGKERELVAGISYSGGRTYYADSVKGRFTISRDNAKNTVYLQMNSLKPEDTAVYYCAAKSFPSVRHHENYYWGQVTQVTVSS : high polyreactivity
QVQLVESGGGLVQAGGSLRLSCAASGRIFDTNAMGWYRQAPGKERELVAAISSSGGRTYYADSVKGRFTISRDNAKNTVYLQMNSLRPEDTAVYYCARVPITKDQYSHYYYWGQGTQVTVSS : high polyreactivity
QVQLVESGGGLVQAGGSLRLSCAASGSTLGRYTMGWYRQAPGKERELVATITASGGGTYYADSVKGRFTISRDTAKNTVYLQMNSLKPEDTAVYYCNAVLWYHFGYDYWGQGTQVTVSS : low polyreactivity
QVQLVESGGGLVQAGGSLRLSCAASGSIFNYYAMGWYRQAPGKERELVAAITSGVSTYADSVKGRFTISRDNAKNTVYLQMNSLKPEVTAVYYCADRVTGPRGDYWGQGTQVTVSS : low polyreactivity

Next sequence, polyreactivity (PSR sort gate) to be filled in.
Consider "QVHLVDSGVGLVQAGGSLRLSCAASGYTFVPYAMGWYRQAPGKERELVAAISSSGGSTYYADAVKGRFTISRDNAKNTVYLQMNSRKPEDSAVYYWAADYRTGQFYAGFDYWGQGTQVTVSS" . Its measured polyreactivity (PSR sort gate) is high polyreactivity

###

- Assay Overview: yeast display, Sf9 membrane polyspecificity reagent, FACS + sequencing; frameworks hold sequencing errors
Property Label: polyreactivity (PSR sort gate)

QVQLVESGGGLVQAGGSLRLSCAASGFTFPNYAMGWYRQAPGKERELVAAISRRGGRTYYADSVKGRFTISRDNAKNTVYLQMNSLKPEDTAVYYCATEYRGDGPKYDYWGQGTQVTVSS : high polyreactivity
QVQLVESGGGLVQAGGSLRLSCAASGLISYHYAMGWYRQAPGKERELVASISYTGGSTFYADSVKGRFTISRDNAKNTVYLQMNSLKPEDTAVYYCAAYRIWRPSYYYWGQGTQVTVSS : high polyreactivity

###

- Assay Overview: yeast display, Sf9 membrane polyspecificity reagent, FACS + sequencing; frameworks hold sequencing errors
Property Label: polyreactivity (PSR sort gate)

Here is how some sequences turned out for polyreactivity (PSR sort gate).
QVQLVESGGGLVQAGGSLRLSCAASGFTFVWNARGWYRQAPGKERELVAVISYSGGSTYYADSVKGRFTISRDNAKNTVYLQMNSLKPEETAVDYCAAEFVTYYSSSKRAYYYWGQGTLVTVSS : high polyreactivity
QVQLVESGGGLVQAGGSLRLSCAASGSTFLYNTMGWYRQSPGKERELVAAITWSGGNTYYADSVKGRFTISRDNAKNTVYLQMNSLKPEDTAVYYCNAVWYPPKRKGFDYWGQGTQVTVSS : low polyreactivity
QVQLVESGGGLVQAGGSLRLSCAASGRTFGNYAMGWYRQAPGKERELVASITYTVGNTYYADSVKGRFTISRDNAKNTVYLQMNSLKPEDTAVYYCAADGFYLQFYHYDYWGQGTQVTVSS : low polyreactivity
QVQLVESGGGLVQAGGSLSLSCAASGNTFYGYAMGWYRQAPGKERELVASITLSGDSTYYADSVKGRFTISRDNAKNTVYLQMNSLKPEDTAVFDCAGVYTYPLGYYHYTYDYWGQGTQVTVSS : low polyreactivity

// "QVQLVESGGGLVQAGGSLRLSCAASGSIFRGYAMGWYRQAPGKERELVAGIRGSDGSTYYADSVKGRFTISRDNAKNTVYLQMNSLKPEDTAVYYCAADRRYLDRDKHRYGYWGQGTQVTVSS" : polyreactivity (PSR sort gate) value = low polyreactivity

The reported value for "QVQLVESGGGLVQAGGSLRLSCAASGFTFRYYAMGWYRQAPGKERELVAAIRRGGTTNYADSVKGRFTISRDNAKNTVYLQMKSLKPEDTAVYYCNAGRGYSVWASIYNSRPFDYWGQGTQVTVSS" in terms of polyreactivity (PSR sort gate) is high polyreactivity

polyreactivity (PSR sort gate) reported for this sequence "QVQLVESGGGLVQAGGSLRLSCAASGLIFVWYAMGWYRQAPGKERELVAAISWSGGSTYYADSVKGRFTISRDNAKTTVYLQMNSLKPEDTAVYYCATDPFGYSYLLVDYNYWGQGTQVTVSS" : low polyreactivity

The recorded polyreactivity (PSR sort gate) for entry "QVQLQESGGGLVQAGGSLRLSCAASGTISVAAYMAWYRQAPGKEREYVASIGYGATTYYADSEKGTFTISRDNAKNTVYLQMNSLKPGDTAVYYCAVDRSPQYRYLYYWGQGTQVTVCS" equals high polyreactivity

Reported polyreactivity (PSR sort gate) ( "QVHLVESGGGLVQAGGILRLRSAASGSTVYGYAMGWYRQAPGKERELVAAITRSGGSTYYADSVKGRFTISRDNATNKVYLQMNSQKPEDTEFYYCNKYGYKGGDGYDYWGQRTQVTVSS" ) = high polyreactivity

Consider "QVQLVESGGGLVQAGGSLRLSCAASGSTFRTNGMGWYRQAPGKESELVAAITRGTSTNYADSVKGRFTISRDNAKNTVYLQMNSLKPEDTAVYYCAADGPDRYHYTTTRYRYDYWGQGTQVTVSS" . Its measured polyreactivity (PSR sort gate) is low polyreactivity

The sequence listed as "QVHLVESGGGLVQAGGSLRLSCAASGGTFDKNAMGWYSQAPGKESEFVAAITYGGGSTYYADSVKGRFTISRDNAKNTVYLQMTSLKPEDSAVYYCAVAIITYPYATGSSYDYWGQGTQVTVSS" shows polyreactivity (PSR sort gate) equal to low polyreactivity
